- Tested on: U2OS
- experiment summary: Incucyte cell viability with U2OS; also: unitless GR value; below 1 slowed growth and below 0 cell loss
- Format: toxicity, cell-based
- test conditions: human, 24 h, 10 µM, compound concentration 10 uM, replicate number 1
Tag: YES if measured Growth Rate is not below 0.4, NO if it is.

Would you please look over these solved cases?
>>> assigned_category("CCCNC(=O)[C@H]1O[C@@H]1C(=O)N[C@H](C(=O)N1CCC[C@H]1C(=O)O)[C@@H](C)CC")
"YES"
>>> assigned_category("Nc1ncnc2c1ncn2[C@@H]1O[C@H](C[C@@H](N)CC[C@H](N)C(=O)O)[C@@H](O)[C@H]1O")
"YES"
>>> assigned_category("CC(=O)O[C@]1(C(C)=O)CC[C@H]2[C@@H]3CCC4=CC(=O)CCC4=C3[C@@H](c3ccc(N(C)C)cc3)C[C@@]21C [ULIPRISTAL ACETATE]")
"YES"

Is it the case that `O=C1C(=O)N(Cc2ccccc2)c2ccc(S(=O)(=O)N3CCC[C@H]3COc3ccc(C(F)(F)F)cc3)cc21` has Growth Rate reaching or exceeding 0.4? NO

Can `Cc1nc(F)ccc1-c1cc(Cn2ccn(C)c2=N)cc(C(=O)NCc2ccc(Cl)c(Cl)c2)c1.O=C(O)C(F)(F)F` be said to have Growth Rate at or above 0.4? YES

Does Growth Rate meet or surpass 0.4 for `O=C(c1ccc2[nH]ccc2c1)N1CCN(S(=O)(=O)c2ccc3[nH]c(=O)oc3c2)CC1` ? YES

###

Assignment: determine reported Growth Rate for the given compounds.
- System: Fibroblast
- experiment summary: Incucyte cell viability with human fibroblast; also: unitless GR value; below 1 slowed growth and below 0 cell loss
- Type: toxicity, cell-based
- test conditions: 24 h, 10 µM, compound concentration 10 uM, replicate number 1
Give bare numbers.

Solved entries (count: 2):
>>> recorded_result("CNC(=O)c1ccc(-c2cc3cccc(-c4nn(C5CCOCC5)c5c4CN(C(C)=O)CC5)c3cn2)cn1")
1
>>> recorded_result("CC(=O)Nc1ccc(C(=O)Nc2ccc(F)cc2N)cc1")
1

So what's the measured Growth Rate for this one? `CCCOc1ccc(CCc2nc3cc(-c4c(C)noc4C)ccc3n2CCN2CCOCC2)cc1` 1

###

- System: HEK-293T
- experiment summary: Incucyte cell viability with HEK293T; also: unitless GR value; below 1 slowed growth and below 0 cell loss
- Type: toxicity, cell-based
- test conditions: human, 24 h, 10 µM, compound concentration 10 uM, replicate number 2
Classify as follows. Reported Growth Rate greater than or equal to 0.8: label 1. Reported Growth Rate below: label 0.

Take a look at these entries with their results.
>>> assigned_category("Cn1cc(NC(=O)c2cc(F)cc(F)c2)c(C(=O)NC2CCNCC2)n1")
"label 1"
>>> assigned_category("CN1CCN(c2ccc3nc(-c4c(N)c5c(F)cccc5[nH]c4=O)[nH]c3c2)CC1")
"label 0"
>>> assigned_category("C[C@@H]1CN(c2ncc(Cl)c(Nc3ccc4c(c3)n(CCC(C)(C)O)c(=O)n4C)n2)C[C@H](C)C1(F)F")
"label 0"
>>> assigned_category("COc1ccc2nc3[nH]nc(C)c3c(NCCOCCO)c2c1")
"label 0"
>>> assigned_category("CNC(=O)O[C@H]1COc2ccc(N3CCN(C4COC4)CC3)cc2[C@@H]1NC(=O)c1ccc(F)cc1")
"label 1"

In plain terms: is recorded Growth Rate at least 0.8 for `O=C(NO)c1cnc(NC2(c3ccccc3)CC2)nc1` ? label 1

Check if Growth Rate >= 0.8 (inclusive). Item: `CCCOc1cc(OCCCCN(C)C)cc(Oc2cc3c(cc2NS(=O)(=O)c2ccc(OC)c(OC)c2)n(C)c(=O)n3C)c1.O=C(O)C(F)(F)F` label 0

Is reported Growth Rate greater than or equal to 0.8 here: `CCCOc1cccc(Oc2cc3c(cc2NS(=O)(=O)c2cccc(C(=O)NCCOCCOCCOCC(=O)N[C@H](C(=O)N4C[C@H](O)C[C@H]4C(=O)NCc4ccc(-c5scnc5C)cc4)C(C)(C)C)c2)n(C)c(=O)n3C)c1` label 0

Threshold query (Growth Rate >= 0.8) on `Cc1ncccc1-c1cnc(NCc2c(F)ccc3c2CCO3)n2cnnc12` label 1

Is Growth Rate at least 0.8? Consider `CC(C)c1cnc(CSc2cnc(NC(=O)C3CCNCC3)s2)o1` label 0

Confirm if Growth Rate reported for the molecule Cc1nc(Nc2ncc(C(=O)Nc3c(C)cccc3Cl)s2)cc(N2CCN(CCO)CC2)n1 [DASATINIB ANHYDROUS] is 0.8 or above. label 0

Growth Rate >= 0.8 for `COC[C@@H]1CCCN1S(=O)(=O)c1ccc2c(c1)C(=O)C(=O)N2` ? label 1

###

- Test system: Fibroblast
- experiment summary: Incucyte cell viability with human fibroblast; also: unitless GR value; below 1 slowed growth and below 0 cell loss
- Format: toxicity, cell-based
- test conditions: 24 h, 10 µM, compound concentration 10 uM, replicate number 2
attribute measured: Growth Rate
Numbers only.

Some entries whose results are on file:
>>> recorded_result("O=C(NO)c1cccc(C(=O)NCCc2ccccc2)c1")
-0.07
>>> recorded_result("CN1CCc2c(n(Cc3ccc(C(=O)NO)cc3)c3ccccc23)C1")
0.54
>>> recorded_result("CC(C)(O)c1ccc(-c2nc3c(F)cc(F)cc3c(=O)[nH]2)cc1")
0.87
>>> recorded_result("C[C@@H]1CN(c2ncc(Cl)c(Nc3ccc4c(c3)n(CCC(C)(C)O)c(=O)n4C)n2)C[C@H](C)C1(F)F")
-0.13
>>> recorded_result("CCC(CC)(NC(=O)C(C)C)C(=O)N[C@@H](CCCNC(=N)N)C(=O)NC1(C(=O)NC(c2ccc(F)cc2)c2ccc(F)cc2)CCCC1")
-0.56
>>> recorded_result("CNCCN(C)Cc1cn[nH]c1-c1ccc(OC2CC(OCCC3CCOCC3)C2)cc1 (stereo not given)")
0.95
>>> recorded_result("COc1ccc(/C=C/C(=O)NO)c(-c2ccc(-c3ccccc3)cc2)c1")
-0.52
>>> recorded_result("COc1cc(-c2cn(C)c(=O)c3cnccc23)cc(OC)c1CN(C)CC(=O)NCCOCCOCCNc1cccc2c1C(=O)N(C1CCC(=O)NC1=O)C2=O (stereo not given)")
0.72

Give Growth Rate for all molecules that follow.
1. COc1cc2c(Nc3ccc(Br)cc3F)ncnc2cc1OCC1CCN(C)CC1
2. COc1cc(Oc2ccnc3cc(OC)c(OC)cc23)ccc1NC(=O)NC(C)c1nccs1 (stereo not given)

-0.22
-0.01

###

- Tested on: HEK-293T
- experiment summary: Incucyte cell viability with HEK293T; also: unitless GR value; below 1 slowed growth and below 0 cell loss
- Type: toxicity, cell-based
- test conditions: human, 24 h, 10 µM, compound concentration 10 uM, replicate number 2
attribute measured: Growth Rate
Give bare numbers.

Examples with their reported Growth Rate follow.
>>> recorded_result("N=C(N)N/N=C/c1cccc(Cl)c1Cl")
0.8
>>> recorded_result("Cc1ncsc1-c1ccc([C@H](C)NC(=O)[C@@H]2C[C@@H](O)CN2C(=O)[C@@H](NC(=O)CNC(=O)c2ccc(F)c(-c3ccc(N4C[C@@H](C)N(C)[C@@H](C)C4)c(NC(=O)c4c[nH]c(=O)cc4C(F)(F)F)c3)c2)C(C)(C)C)cc1")
0.78

// next item, Growth Rate requested
# query: Growth Rate of entry `Cc1cc(C)c(CNC(=O)c2cc(-c3ccc(N4CCN(C)CC4)nc3)cc3c2c(C)cn3C(C)C)c(=O)[nH]1` 0.79

###

- Test system: HEK-293T
- experiment summary: Incucyte cell viability with HEK293T; also: unitless GR value; below 1 slowed growth and below 0 cell loss
- Assay type: toxicity, cell-based
- test conditions: human, 24 h, 10 µM, compound concentration 10 uM, replicate number 2
Peptide text beside a SMILES is read from it.
Each entry gets 0.0 if its Growth Rate stays under 0.9, and 1.0 if its Growth Rate is 0.9 or above.

Worked examples follow.
>>> assigned_category("CC(=O)N[C@H](C(=O)N[C@@H](CC(=O)O)C(=O)N[C@H](C(=O)N[C@@H](C)C(=O)N[C@H](C=O)CC(=O)O)C(C)C)C(C)C (Ac-VDVAD-aldehyde)")
1.0
>>> assigned_category("CCCNC(=O)[C@H]1O[C@@H]1C(=O)N[C@H](C(=O)N1CCC[C@H]1C(=O)O)[C@@H](C)CC")
0.0
>>> assigned_category("COc1cc2c(NC3CCN(C)CC3)cc(-c3ccc(C)o3)nc2cc1OCCCN1CCCC1")
0.0
>>> assigned_category("CCNC(=O)c1noc(-c2cc(C(C)C)c(O)cc2O)c1-c1ccc(CN2CCOCC2)cc1")
0.0

Quick check, Growth Rate >= 0.9? `CC(=O)Nc1ccc(OC[C@](C)(O)C(=O)Nc2ccc([N+](=O)[O-])c(C(F)(F)F)c2)cc1` 0.0

Confirm if Growth Rate reported for the compound CC(=O)N[C@@H](CC(C)C)C(=O)N[C@@H](CCC(=O)O)C(=O)N[C@@H](Cc1cnc[nH]1)C(=O)N[C@H](C=O)CC(=O)O.O=C(O)C(F)(F)F (Ac-LEHD-aldehyde) is 0.9 or above. 1.0

Can `CN(C)Cc1ccc(S(=O)(=O)n2ccc(/C=C/C(=O)NO)c2)cc1.Cl` be said to have Growth Rate at or above 0.9? 0.0

Tell me whether Growth Rate is at least 0.9 here: `Br.N#Cc1ccc(-c2csc(NN=C3CCCC3)n2)cc1` 0.0

Values from ChEMBL document CHEMBL5724709
